Each entry below carries its reported N-term IgG.
Molecular target: T1, B3GNT2 (Homo sapiens, UniProt Q9NY97)
T1 construct: The respective ORFs of candidate genes [CD274 (NM_014143), MCL1 (NM_021960), JUNB (NM_002229), and B3GNT2 (NM_006577)] were synthesized; expressed in transfected cells; host or cells: A375 melanoma cells (lentiviral ORF overexpression)
T1 sequence (Q9NY97 1-397): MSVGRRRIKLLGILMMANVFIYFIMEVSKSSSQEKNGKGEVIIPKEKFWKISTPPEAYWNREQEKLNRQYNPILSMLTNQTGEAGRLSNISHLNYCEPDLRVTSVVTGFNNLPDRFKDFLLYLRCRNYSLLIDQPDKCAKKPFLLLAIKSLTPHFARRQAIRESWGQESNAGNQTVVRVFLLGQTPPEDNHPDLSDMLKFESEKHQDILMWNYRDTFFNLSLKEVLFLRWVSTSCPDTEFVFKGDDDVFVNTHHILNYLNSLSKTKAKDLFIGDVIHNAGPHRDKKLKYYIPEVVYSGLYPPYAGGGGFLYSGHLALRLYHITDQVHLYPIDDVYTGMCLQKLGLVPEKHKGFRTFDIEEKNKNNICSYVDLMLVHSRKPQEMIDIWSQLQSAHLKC
Assay: Co-IP of FLAG-tagged B3GNT2 followed by mass spectrometry
Format: cell-based
Conditions: Co-IP with IgG control antibody, N-terminally FLAG-tagged B3GNT2; mass spectrometry count, unit not given
Protocol: Cells were plated in 10-cm cell culture dishes and grown to 60-80% confluency. For each condition, two biological replicates were harvested for co-IP. Cells were washed with PBS and 4 mL of lysis buffer (20 mM HEPES, 1% Triton X-100, 150 mM NaCl, 1 mM EDTA, and 10% glycerol) containing protease inhibitor cocktail was added. […] The effluent from the column was analyzed using a Thermo Orbitrap Elite mass spectrometer (nanospray configuration) operated in a data dependent manner for 54 minutes. […]
Respond numerically, and do not add a unit to the figure.

Field: example entries. Status: answers known.
CTHRC1 (protein) MWPPGRSITVKLREKTVSRKLEMNGPSAFQGLICGKYNGMCLQGPAGVPGRDGSPGANGIPGTPGIPGRDGFKGEKGECLRESFEESWTPNYKQCSWSSLNYGIDLGKIAECTFTKMRSNSALRVLFSGSLRLKCRNACCQRWYFTFNGAECSGPLPIEAIIYLDQGSPEMNSTINIHRTSSVEGLCEGIGAGLVDVAIWVGTCSDYPKGDASTGWNSVSRIIIEELPK
0
CD70 (protein) MPEEGSGCSVRRRPYGCVLRAALVPLVAGLVICLVVCIQRFAQAQQQLPLESLGWDVAELQLNHTGPQQDPRLYWQGGPALGRSFLHGPELDKGQLRIHRDGIYMVHIQVTLAICSSTTASRHHPTTLAVGICSPASRSISLLRLSFHQGCTIASQRLTPLARGDTLCTNLTGTLLPSRNTDETFFGVQWVRP
0

Okay, now this molecule:
In plain terms, SPRR2E (protein) MSYQQQQCKQPCQPPPVCPTPKCPEPCPPPKCPEPCPPPKCPQPCPPQQCQQKCPPVTPSPPCQPKCPPKSK has a documented N-term IgG of 3
